Assignment: determine reported IC50 for the given compounds.
Molecular target: α5β1 integrin (Homo sapiens, UniProt P05556+P08648)
Construct: α5β1 integrin mediated adhesion of K562 cells; E. coli (Fn9-10 ligand, made in house)
Sequence (P08648 42-894 limits assumed): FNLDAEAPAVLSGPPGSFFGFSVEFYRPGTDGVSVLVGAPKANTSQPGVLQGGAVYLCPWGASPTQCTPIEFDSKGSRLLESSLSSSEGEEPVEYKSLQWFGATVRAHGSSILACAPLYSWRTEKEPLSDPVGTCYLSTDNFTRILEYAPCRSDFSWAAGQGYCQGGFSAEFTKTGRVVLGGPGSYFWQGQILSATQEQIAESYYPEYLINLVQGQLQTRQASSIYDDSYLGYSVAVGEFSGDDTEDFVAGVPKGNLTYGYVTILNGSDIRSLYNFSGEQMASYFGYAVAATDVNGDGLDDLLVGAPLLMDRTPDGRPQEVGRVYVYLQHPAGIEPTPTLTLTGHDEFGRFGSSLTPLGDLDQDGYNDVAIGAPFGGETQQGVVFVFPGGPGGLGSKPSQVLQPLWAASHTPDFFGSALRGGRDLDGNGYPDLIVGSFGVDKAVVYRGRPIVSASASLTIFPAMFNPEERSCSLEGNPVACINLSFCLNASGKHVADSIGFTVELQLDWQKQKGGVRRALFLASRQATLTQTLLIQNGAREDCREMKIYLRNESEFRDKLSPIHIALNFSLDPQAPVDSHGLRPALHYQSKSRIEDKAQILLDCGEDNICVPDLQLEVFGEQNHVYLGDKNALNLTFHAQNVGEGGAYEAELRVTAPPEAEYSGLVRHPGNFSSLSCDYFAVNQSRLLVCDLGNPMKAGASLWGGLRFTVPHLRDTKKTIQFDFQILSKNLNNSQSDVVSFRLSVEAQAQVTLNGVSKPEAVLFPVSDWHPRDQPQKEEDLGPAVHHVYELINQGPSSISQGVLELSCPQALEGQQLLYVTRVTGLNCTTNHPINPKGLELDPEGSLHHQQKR
Sequence (P08648 895-1049 partner limits assumed): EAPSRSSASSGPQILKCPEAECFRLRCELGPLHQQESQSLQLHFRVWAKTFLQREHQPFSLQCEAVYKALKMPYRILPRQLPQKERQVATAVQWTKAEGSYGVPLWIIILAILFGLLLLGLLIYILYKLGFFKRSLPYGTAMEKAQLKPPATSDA
Sequence (P05556 21-798): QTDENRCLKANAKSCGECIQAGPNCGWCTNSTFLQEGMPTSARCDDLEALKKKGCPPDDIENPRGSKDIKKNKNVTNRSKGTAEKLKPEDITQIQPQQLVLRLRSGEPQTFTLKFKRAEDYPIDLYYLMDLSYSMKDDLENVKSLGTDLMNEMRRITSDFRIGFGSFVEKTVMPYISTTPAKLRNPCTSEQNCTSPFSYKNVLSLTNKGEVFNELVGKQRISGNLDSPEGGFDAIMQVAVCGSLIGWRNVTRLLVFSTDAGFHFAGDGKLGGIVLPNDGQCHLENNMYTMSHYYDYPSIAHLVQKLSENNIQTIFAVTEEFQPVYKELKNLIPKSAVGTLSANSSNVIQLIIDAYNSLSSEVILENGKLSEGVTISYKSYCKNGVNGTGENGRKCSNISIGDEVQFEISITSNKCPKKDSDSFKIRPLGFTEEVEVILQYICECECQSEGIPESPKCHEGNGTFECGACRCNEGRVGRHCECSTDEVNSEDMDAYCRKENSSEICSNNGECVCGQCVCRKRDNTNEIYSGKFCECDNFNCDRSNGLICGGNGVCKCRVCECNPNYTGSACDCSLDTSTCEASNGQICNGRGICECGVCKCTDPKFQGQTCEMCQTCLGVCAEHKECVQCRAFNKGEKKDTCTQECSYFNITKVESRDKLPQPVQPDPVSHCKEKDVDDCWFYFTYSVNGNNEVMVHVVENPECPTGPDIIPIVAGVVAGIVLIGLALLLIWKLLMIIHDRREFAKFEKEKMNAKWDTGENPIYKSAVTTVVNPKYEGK
Assay: In vitro cell adhesion assay: α5β1 integrin mediated adhesion of K562 cells to fibronectin fragment Fn9-10
Details: human K562 erythroleukaemia cells; Fn9-10 coated plates; 0.2 mM MnCl; 45 minutes at 37° C.; crystal violet absorbance at 590 nm

molecular_string=COc1cccc(CN2CCC(c3ccc(C[C@H](NC(=O)c4c(Cl)cccc4Cl)C(=O)O)cc3)CC2)c1 result="≥ 30 µM"
molecular_string=Cc1cccc(Cl)c1C(=O)N[C@@H](Cc1ccc(C2=CCN(Cc3ccc(F)cc3)CC2)cc1)C(=O)O result="≥ 30 µM"

# context switch: different compound, same IC50
# compound `O=C(N[C@@H](Cc1ccc(C2CCN(Cc3ccccc3F)CC2)cc1)C(=O)O)c1c(Cl)cccc1Cl` ; its IC50 = ≥ 30 µM

Reference source: patent US20090137601A1
